System: CCRIS mutagenicity, Ames/micronucleus/aberration tests
assay remarks: CCRIS mutagenicity studies
assay setup: Test System: AMES SALMONELLA TYPHIMURIUM; Strain/Indicator: TA98; Metabolic Activation: RAT LIVER S-9, PHENOBARBITAL AND BETA-NAPHTHOFLAVONE; Method: PREINCUBATION
Active and inactive are the calls of the source. The rule behind the calls is not given here.
Valid outcomes are listed here; reply with one: yes for active, no for inactive

I'd appreciate the recorded outcome for O=C1c2ccccc2C(=O)c2ccccc21 from this test.
no

What do you have for CCOc1ccc2ccccc2c1 ?
no

What do you have for Cc1ccccc1Br ?
no

***
I'd appreciate the recorded outcome for O=[N+]([O-])c1cccc2cccc([N+](=O)[O-])c12 from this test.
yes

What do you have for Nc1ccc(S(=O)(=O)O)c2ccccc12 ?
no

What do you have for O=C=Nc1cccc2c(N=C=O)cccc12 ?
no

What do you have for O=C(OOC(=O)c1ccccc1)c1ccccc1 ?
no

What do you have for CC(=O)Nc1ccc(S(=O)(=O)Cl)cc1 ?
no

Reference source for all entries: PubChem BioAssay AID1259407
